TEST TARGET: S. aureus coagulase (Coa); 6×His-Coa; WT-Coa (Staphylococcus aureus, UniProt Q2G1D3, P268A)
Construct: gene SAOUHSC_00192
EXPERIMENT NOTES: biochemical
PARAMETER: Kd
# number then unit; no other words

Tell us which Kd value is on record for O=c1cc(-c2ccc(O)cc2)oc2cc(O)c([C@@H]3O[C@H](CO)[C@@H](O)[C@H](O)[C@H]3O)c(O)c12 [isovitexin, apigenin-6-C-β-glucopyranoside]
19.4 µM
